Recorded TGI by entry
tested on: MCF7 breast; assay: NCI tumour cell line growth inhibition, 48 h

{"columns": ["MOLECULE", "TGI"],
 "data": [
  ["CNC(=O)C1(C#N)C(c2ccccc2)C(C#N)(C(=O)NC)C1c1ccccc1 (stereo unspecified)", "> 100 µM"],
  ["CC(C)(C)OC(=O)N1C(OP(=O)(Oc2ccccc2)Oc2ccccc2)=CSc2ccccc21", "> 100 µM"],
  ["O=C(NCCC1CN(C(=O)OCc2ccccc2)c2ccccc21)OCc1ccccc1 (stereo unspecified)", "> 100 µM"],
  ["CN(Cc1cn(O)c2nc(=N)nc(N)c-2n1)c1ccc(C(=O)NC23CC4CC(CC(C4)C2)C3)cc1", "> 100 µM"],
  ["O=C1C2CCCCC2C(=O)N1n1c(-c2ccccc2)n[nH]c1=O (stereo unspecified)", "> 100 µM"],
  ["CC(=O)O[C@H]1CC[C@H]2[C@@H]3CCC4=CC(=O)C=C[C@]4(O)[C@H]3CC[C@]12C", "> 83.5 µM"]
]}

====

test system: KM12 colon; assay: NCI tumour cell line growth inhibition, 48 h
Below, each of the molecules is paired with its reported TGI value.

{"columns": ["MOLECULE", "TGI"],
 "data": [
  ["N#Cc1ccc(-c2nc3c(N)nc(-c4ccccc4)nc3o2)cc1", "> 100 µM"],
  ["COc1cccc(/C=C/C(=O)c2sc(C(N)=S)nc2C)c1O", "> 100 µM"],
  ["Cc1[nH]c(=O)[nH]c(=O)c1/C=C/C(=O)NC(CO)CS(=O)CS(C)=O (stereo not drawn)", "> 92.1 µM"]
]}

====

Let's look at some compounds and their measured TGI.
test system: HOP-62 NSCLC; experiment: NCI tumour cell line growth inhibition, 48 h
QUANTITY: TGI

{"columns": ["COMPOUND", "QUANTITY", "ASSAY_VALUE"],
 "data": [
  ["COc1ccc(C(=O)c2c3cc(OC)c(OC)c(OC)c3cc[n+]2C)cc1", "TGI", "> 100 µM"],
  ["S=c1c2[nH]cnc2ncn1CCSC1=NC=NC2=NC=NC21 (stereo not drawn)", "TGI", "> 100 µM"],
  ["Cc1cc(=O)oc2c(CNC(CO)C(=O)O)c(O)ccc12 (stereo not drawn)", "TGI", "> 100 µM"]
]}

====

Each entry below carries its reported TGI.
tested on: NCI-H23 lung; test: NCI tumour cell line growth inhibition, 48 h
QUANTITY: TGI

{"columns": ["MOLECULE", "QUANTITY", "ASSAY_VALUE"],
 "data": [
  ["CC(C)(C)CC(C)(C)c1ccc(O)c(Cc2ccc(Cl)cc2Cl)c1", "TGI", "2.89 µM"],
  ["O=S1(=O)c2ccccc2C(Nc2ccccc2)N1c1ccccc1 (stereo not drawn)", "TGI", "> 100 µM"],
  ["CCOC(=O)C1=C(C)NC(=O)NC1CN1C(=O)c2ccccc2C1=O (stereo not drawn)", "TGI", "> 100 µM"],
  ["O=[N+]([O-])c1cccc(-c2ncc3c(n2)-c2ccccc2C3)c1", "TGI", "> 100 µM"],
  ["O=C(CCc1ccccc1)NS(=O)(=O)c1ccccc1", "TGI", "> 100 µM"],
  ["CCCCCCCCCCCCCC1=C(O)C(=O)C(CC2=C(O)C(=O)C(CCCCCCCCCCCCC)=C(O)C2=O)=C(O)C1=O", "TGI", "> 100 µM"],
  ["CCOc1cn(C2OC(CO)C(O)C2O)c(=O)[nH]c1=O (stereo not drawn)", "TGI", "> 100 µM"],
  ["CC(=O)O[C@H]1CCN2C(=O)C=CC(OCc3ccccc3)C12 (stereo partly drawn)", "TGI", "> 100 µM"],
  ["COc1cc(N2C(=O)[C@H](c3ccccc3)C2c2ccc(SC)cc2)cc(OC)c1OC (stereo partly drawn)", "TGI", "> 100 µM"],
  ["C#Cc1cccc(Nc2ncnc3ccc(OCCCCNCCS(C)(=O)=O)cc23)c1", "TGI", "> 25 µM"],
  ["N#Cc1ccc(-c2nc3c(N)nc(-c4ccccc4)nc3o2)cc1", "TGI", "> 100 µM"],
  ["COc1cc(C2OC(N)=C(C#N)C3=C2C(C)CCC3)cc(OC)c1OC (stereo not drawn)", "TGI", "> 100 µM"],
  ["O/N=C(/CC(O)(C(F)(F)F)C(F)(F)F)c1ccccc1", "TGI", "> 10 µM"]
]}
